Reported IC50 values, Prostaglandin G/H synthase 2 (Homo sapiens, UniProt P35354).
observation type: IC50 (nM)

[
  {
    "smiles code": "CS(=O)(=O)Nc1ccncc1Nc1ccc(Cl)cc1",
    "qualifier symbol": "=",
    "experimental result": 5930
  },
  {
    "smiles code": "COc1cccc(Nc2cnccc2NS(C)(=O)=O)c1",
    "qualifier symbol": ">",
    "experimental result": 100000
  },
  {
    "smiles code": "COc1ccccc1Nc1cnccc1NS(=O)(=O)C(F)(F)F",
    "qualifier symbol": "=",
    "experimental result": 2530
  },
  {
    "smiles code": "O=S(=O)(Nc1ccncc1Nc1cccc(Cl)c1)C(F)(F)F",
    "qualifier symbol": "=",
    "experimental result": 270
  },
  {
    "smiles code": "CS(=O)(=O)Nc1ccncc1Nc1cccc(Br)c1",
    "qualifier symbol": "=",
    "experimental result": 2560
  }
]
